# Tested on: metallo-beta-lactamase IMP-1 (Pseudomonas aeruginosa)
# Assay: IMP-1 enzyme inhibition by VIM-2 hits – biochemical, epi-absorbance readout, triplicate, selectivity assay for selective VIM-2 inhibitor project, confirmation (AID 1856);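 further: 0% = enzyme with vehicle and 100% = vehicle without enzyme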
# Condition Set: purified IMP-1, nitrocefin hydrolysis, epi-absorbance fluorescence; at 5.6 µM; active compounds read high
The whole screen tested about 1,300 compounds, of which fewer than 10 were called active. The list is a sample of the results.
Reported Property: inhibition (%)
Write it as a number; the unit % goes unstated.

Data request: Fill in the blank: the reported inhibition of COC(=O)c1ccc(-c2noc(CN(Cc3ccccn3)CC3CCCO3)n2)cc1 (stereo unspecified) is ____.
Data returned: -4.37

Data request: Fill in the blank: the reported inhibition of COc1ccc(Cc2nnc(NS(=O)(=O)Cc3ccccc3)s2)cc1 is ____.
Data returned: -2.35

Data request: Fill in the blank: the reported inhibition of O=C(NC(=S)Nc1ccccc1C(=O)O)c1ccc(-c2ccc(Br)cc2)o1 is ____.
Data returned: -2.92

Data request: Fill in the blank: the reported inhibition of Cc1cccn2c(=O)c(C=O)c(Nc3ccc(S(N)(=O)=O)cc3)nc12 is ____.
Data returned: -3.66

Data request: Fill in the blank: the reported inhibition of COc1ccc(Nc2cc(C)nc(-n3nc(C)cc3C)n2)cc1 is ____.
Data returned: -4.36

Data request: Fill in the blank: the reported inhibition of COC(=O)c1c(NC(=O)c2ccc(S(=O)(=O)N3CCOCC3)cc2)sc2c1CCN(C(C)C)C2 is ____.
Data returned: -3.07

Data request: Fill in the blank: the reported inhibition of CCN1CCN(C(=O)Cn2nc(C)n3c(cc4c(OC)cccc43)c2=O)CC1 is ____.
Data returned: -3.39

Data request: Fill in the blank: the reported inhibition of Cn1c(-c2sccc2OCc2cccc(C(F)(F)F)c2)n[nH]c1=S is ____.
Data returned: -2.3

Data request: Fill in the blank: the reported inhibition of CCC1CCCCN1CCCNC(=O)c1cc2c(Cl)nc3ccccc3c2s1 (stereo unspecified) is ____.
Data returned: -2

Data request: Fill in the blank: the reported inhibition of CCOc1cc(/C=C2\SC(N3CCCC(C)C3)=NC2=O)ccc1O (stereo unspecified) is ____.
Data returned: -1.58

Data request: Fill in the blank: the reported inhibition of Nc1nnc2c(C(F)(F)F)nc3ccccc3n12 is ____.
Data returned: -2.31

Data request: Fill in the blank: the reported inhibition of CCCc1ccc(OCCNC(=O)c2ccco2)cc1 is ____.
Data returned: -3.83

Data request: Fill in the blank: the reported inhibition of CCN1CCCC1CNC(=O)c1cc2c(=O)n(C)c3ccccc3c2n1C (stereo unspecified) is ____.
Data returned: -1.43

Data request: Fill in the blank: the reported inhibition of CC1CCCC(C)N1CCCNC(=O)c1cc2c(=O)n(C)c3ccccc3c2n1C (stereo unspecified) is ____.
Data returned: -3.58

Data request: Fill in the blank: the reported inhibition of CC(NS(=O)(=O)c1ccccc1)c1n[nH]c(=S)n1-c1ccccc1 (stereo unspecified) is ____.
Data returned: -3.01

Data request: Fill in the blank: the reported inhibition of Cc1nc2ccccc2c2oc(C(=O)NCCCN3CCC(C)CC3)cc12 is ____.
Data returned: -2.57

Data request: Fill in the blank: the reported inhibition of O=c1[nH]c(-c2ccccc2)c(-c2ccccc2)[nH]1 is ____.
Data returned: -1.69

Data request: Fill in the blank: the reported inhibition of COc1ccc(-c2nn3c(-c4ccccc4)nnc3s2)cc1OC is ____.
Data returned: -2.66

Data request: Fill in the blank: the reported inhibition of CCN1CCN(CCNC(=O)c2ccc3c(c2)NC(=O)/C(=C\c2ccc(OC)c(OC)c2)S3)CC1 is ____.
Data returned: -3.87

Data request: Fill in the blank: the reported inhibition of CCOc1cc(/C=C2\SC(N3CCCCC3)=NC2=O)ccc1O is ____.
Data returned: -4.28

Data request: Fill in the blank: the reported inhibition of COc1nc(N=C(N)N)nc2c(C)cccc12 is ____.
Data returned: -3.85

Data request: Fill in the blank: the reported inhibition of Cc1ccc(Cl)cc1-c1ccc(/C=N/n2cnnc2)o1 is ____.
Data returned: -3.92

Data request: Fill in the blank: the reported inhibition of COc1cc(-c2nn3c(-c4cccc(C)c4)nnc3s2)cc(OC)c1OC is ____.
Data returned: -3.37

Data request: Fill in the blank: the reported inhibition of Nc1cccc2c1C(=O)N(Cc1nnc(-c3ccccc3Br)o1)C2=O is ____.
Data returned: -1.84

Data request: Fill in the blank: the reported inhibition of COc1cc(NC(=O)C2=C(C)OCCS2)c(Cl)cc1C(=O)NCCN1CCN(C)CC1 is ____.
Data returned: -2.62

Data request: Fill in the blank: the reported inhibition of Fc1ccc(-c2ccc(CNCc3ccccn3)o2)cc1Cl is ____.
Data returned: -3.51

Data request: Fill in the blank: the reported inhibition of Cn1c(=O)c2c(nc(N3CCOCC3)n2CCNC2=NCCC2)n(C)c1=O is ____.
Data returned: -2.77

Data request: Fill in the blank: the reported inhibition of Clc1cc(-c2ccc(/C=N/n3cnnc3)o2)ccc1Br is ____.
Data returned: -2.66

Data request: Fill in the blank: the reported inhibition of O=C(COc1cc2oc(=O)c3c(c2cc1Cl)CCC3)NCCCN1CCOCC1 is ____.
Data returned: -1.87

Data request: Fill in the blank: the reported inhibition of O=C(NCCCN1CCOCC1)c1cnn2c(-c3ccccc3)cc(-c3ccccc3)nc12 is ____.
Data returned: -1.31

Data request: Fill in the blank: the reported inhibition of Cc1cc(C)c2nc3nc(C)cc(C)c3c(N)c2c1 is ____.
Data returned: -3.37
